This listing pairs molecules with measured growth.
- Test system: HT29 colon
- experiment_notes: NCI-60 one-dose screen, 48 h (100 = growth as untreated, 0 = no growth, -100 = all killed)
- details: 10 µM unless noted
This is part of a sample that, as a whole, favours compounds with a hit. Of some 83,000 tested, about 20% had one in any assay.
endpoint_label: growth (%)

1. CN(CCC(=O)c1ccccc1)CCC(=O)c1ccccc1 : 117
2. O=C(/C=C/c1ccc(Cl)cc1)c1cccc(OCCCOc2cccc(C(=O)/C=C/c3ccc(Cl)cc3)c2)c1 : 98.6
3. O=C(/C=C/c1ccc(Oc2ccc(Br)cc2)cc1)c1ccc(Br)cc1 : 100
4. Nc1nc(NC(=O)Nc2ccc(C(=O)O)cc2)nn1-c1ccc(S(N)(=O)=O)cc1 : 105
5. CCN1CCN(CC(=O)Nc2nc3ccc(NCc4ccc(F)cc4)cc3s2)CC1 : 77.4

----------
- System: SF-539 CNS
- experiment_notes: NCI-60 one-dose screen, 48 h (100 = growth as untreated, 0 = no growth, -100 = all killed)
- details: 10 µM unless noted
Compounds without any hit were thinned out: in the full panel of roughly 83,000, 20% have a hit.
The label depends only on growth: 1 (yes) if it is at least 50%, 0 (no) if it is smaller.

1. COc1cccc(C(=O)NNc2nc(Cl)nc(Cl)n2)c1 : 1 (yes)
2. COCCn1cc(-c2csc(-c3c[nH]c4ccc(Br)cc34)n2)c2cccnc21 : 0 (no)
3. Cc1ccc(S(=O)(=O)OCCCOS(=O)(=O)c2ccc(C)cc2)cc1 : 1 (yes)
4. NC(=O)c1c(NC(=O)c2cccs2)sc2c1CCC(=O)C2 : 0 (no)
5. O=C1/C(=C2\SC(=S)N(C3CC3)C2=O)SC(=S)N1C1CC1 : 1 (yes)
6. COc1ccc(/C=C/C(=O)c2ccc(NC(=O)CSc3nc4c([nH]3)c(=O)n(C)c(=O)n4C)cc2)cc1OC : 1 (yes)
7. CCN1C(=O)N(CC)C2C1NN=c1s/c(=C3\C(=O)N(CCC(C)C)c4ccccc43)c(=O)n12 (stereo not given) : 0 (no)
8. COc1ccc(/C=C/C(=O)c2cc(OC)c(OC)c(OC)c2)cc1OCC(=O)Nc1nc2ccc(OC(F)(F)F)cc2s1 : 0 (no)
9. CNC1=C([N+](=O)[O-])C(c2ccc(OC)cc2)C(C#N)=C(c2cccs2)O1 (stereo not given) : 1 (yes)
10. COc1cccc(/C=C/C(=O)c2cccc(Nc3nc(Nc4ccccc4)nc(Nc4ccccc4)n3)c2)c1 : 1 (yes)
11. Cc1ccc2nc(-c3ccc(C(=O)NNC(=S)Nc4ccccc4)cc3)[nH]c2c1 : 1 (yes)
12. Cc1ccc(S(=O)(=O)Oc2ccc3sc4cccc(NCCN(C)C)c4c(=O)c3c2)cc1 : 0 (no)
13. Ic1ccccc1I : 1 (yes)
14. CCNC(=O)Oc1ccc(/C(=C(/CC)Cc2ccccc2)c2ccc(OCCN3CCCC3)cc2)cc1 : 1 (yes)
15. O=C(N/N=C/c1cc(Cl)ccc1O)c1ccccc1Nc1ccnc(C(F)(F)F)c1 : 0 (no)
16. COc1ccc(C(=O)c2cc3c(N)c(C(=O)Nc4ccccc4)sc3nc2C)cc1 : 0 (no)
17. CCCCNc1nnc2n(Cc3ccccc3)c(=O)c3c4c(sc3n12)CCCC4 : 0 (no)
18. COc1cc2c(cc1OCCCCN1CCN(C(=S)SCCC(C#N)(c3ccccc3)c3ccccc3)CC1)N=C[C@@H]1CCCN1C2=O : 0 (no)
19. CC/C(Cc1ccccc1)=C(\c1ccc(OCCCN(C)C)cc1)c1ccc(OC(=O)NCc2ccccc2)cc1 : 1 (yes)
20. O=C1NC(=O)/C(=C/c2c(-c3ccccc3)nc3sc(COc4ccccc4)nn23)S1 : 1 (yes)
